// reported aptazyme ON/OFF ratio for each item listed
B1: Pistol ribozyme (parent)
chain: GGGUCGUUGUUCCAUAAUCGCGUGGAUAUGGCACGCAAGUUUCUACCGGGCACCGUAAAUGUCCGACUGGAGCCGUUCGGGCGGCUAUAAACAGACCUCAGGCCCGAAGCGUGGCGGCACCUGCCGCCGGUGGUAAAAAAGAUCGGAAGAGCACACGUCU

# Variants of: B1
# test.name: aptazyme ON/OFF ratio, guanine; higher = stronger switching; co-transcriptional cleavage with and without guanine
outcome.measure: aptazyme ON/OFF ratio

U7C U8G G9U U11G C13G = 1.04
U8A G9A U10C U11G C12U C13G = 1.22
U7A U8A G9A U10A U11C = 1.04
G9C U10C U11G C12U C13U = 1.06
U7G U8G G9U U10C U11A C12G = 1.25
U8G G9C U10A U11A C12G C13A = 1.11
U8C G9A U10G U11C C12A C13A = 1.15
U7C U8C G9U U11G C12U C13A = 1.1
U7C U8C G9U U10C U11C C12G = 1.06
U7A U8C G9U U10G U11C C13A = 1.17
U7G U8A U11A C12G C13A = 1.08
U7G U8A U11A C12U C13G = 1.26
U7A G9C U10G U11A C12U C13U = 1.05
U10A U11C C12U C13A = 1.06
U10C U11A C13A = 1.25
U7C U8G G9U U10A U11G C13G = 1.04
U7A U8A G9C U10A U11C C13U = 1.04
U7G U8C G9C C12G C13A = 1.13
U7A G9A U10C U11A C12U = 1.31
U7C U8C G9A U10A C12G C13A = 1.11
U7C U8A G9C U10A U11C C12G C13G = 1.29
U7C U8A G9A U10C U11G C12U = 1.22
U8G G9U U11C C12G C13G = 1.06
U7G U8C G9A U10C U11G C12G C13G = 1.08
G9U U10G U11C C12U C13G = 1.17
U7C G9A U11G C12G C13A = 1.19
U7C G9U U11A C12G C13G = 1.24
U7A U10A U11C C12G C13G = 1.17
U8C G9A U10G U11G C12U C13U = 1.22
U7C U8A G9U U11C C12U = 1.17
U8G G9C U11A C13A = 1.04
U7A U10A U11G C13G = 1.3
U8C G9C U10C U11C C12U C13G = 1
U7G U8A U11G C12U C13A = 1.34
U8A G9C U10A U11A C12G C13U = 1.3
U7C U8C G9A U11C C12U C13U = 1.18
U7C U8C G9C U11G C13G = 1.12
U8G U10A U11G C12A = 1.12
U7C G9A U10G U11G C12U = 1.28
U7G G9C U10A U11C C12A C13G = 1.23
U7C U8G G9A U10C C12A = 1.18
U7G U10A U11G C12A = 1.13
U7C U8C U10C U11C C12G C13A = 1.1
U7G U8G U10G U11A C12A C13A = 1.17
U8A G9U U10G C12U C13U = 1.45
U7G U8C G9A U10A C12G C13U = 1.15
U8C G9A U10G = 1.57
U7G G9U U10G = 3.04
U7A U8C U11A C12G C13G = 1.1
U7A U8A G9C U10C C12G C13U = 1.06
U7C U8A G9C U10C U11A C13U = 1.13
U8G G9A C12G C13A = 1.37
U7C G9C U10G U11C = 1.05
U8A G9U U10G C12G C13A = 1.29
U7A U8C G9A U10A C12A C13G = 1.22
U8C G9U U10C U11C = 1.05
U7G U8C G9C U10G U11A C12G C13G = 1.21
U7A U8A G9U C12G C13U = 1.47
G9A U11C C12U C13A = 1.41
U7A U8A G9U U10C U11A C12G C13G = 1.17
U7C G9C U10A C12U = 1.06
U7A U10C C12G C13A = 1.29
U7C U8A G9C U10C C12U C13A = 1.06
U7C U8A G9U U10A C12G = 1.18
U7A U10G C12A C13U = 1.2
G9A U10A U11A C13U = 1.46
U7C U8C G9U U10G U11C = 1.39
U7A U8A U10C U11C C13U = 1.02
U7C U8A U10C U11A C12A C13A = 1.2
U7G G9U U10G C12A C13G = 1.12
U7G U8C G9C U10G U11A C12A C13A = 1.1
U7A U8G G9A U10C U11C C13A = 1.07
U8C G9U U11A C12G = 1.36
U7C U8G G9C U11A C12A C13U = 1.22
U7C G9A U10G U11G C12G = 1.23
G9C U10C U11A C12G C13G = 1.19
U7A U8G G9A U10C U11C = 1.02
U8A G9U U10G U11C C12U C13G = 1.05
G9A U10G U11A C12A C13A = 1.08
U8A G9A C13A = 1.19
U7G G9C U10A U11A C12U C13U = 1.29
U7C U8G G9U U11C C12G C13G = 1.17
U7A U8A G9A U10G C13U = 1.34
U8A G9U U10G U11A C12A C13U = 1.47
U8C G9A U10G U11G C12G = 1.21
U7C G9A U11G C12A C13G = 1.25
U8G G9A U10C C12G C13U = 1.33
U7C U8A U10C U11G C12G C13G = 1.08
U7C U8G G9U U10G U11C C12U = 1.09
U8A G9C U10A = 1.38
U7C G9C U10C U11C C12G C13A = 1.03

All values here come from the RNAGym collection of RNA variant scans (doi:10.1021/acssynbio.7b00057).
